- System: NCI-H2085
- protocol-text: relative viability (nuclei count vs DMSO), 5 days (fraction); higher = more cells survive
- details: first compound 20 µM
experimental-endpoint: relative viability
Provide a numeric answer; units are not to be included.

Examples with answers:
| compound | experimental-endpoint | measured-value |
| --- | --- | --- |
| Cc1csc(=NC2CCCCC2)n1/N=C/c1ccc(O)c(O)c1O [MIM1] + O=C(c1cc(Cc2n[nH]c(=O)c3ccccc23)ccc1F)N1CCN(C(=O)C2CC2)CC1 [Olaparib] (partner 8 µM) | relative viability | 0.641 |
| Cc1csc(=NC2CCCCC2)n1/N=C/c1ccc(O)c(O)c1O [MIM1] + CS(=O)(=O)CCNCc1ccc(-c2ccc3ncnc(Nc4ccc(OCc5cccc(F)c5)c(Cl)c4)c3c2)o1 [Lapatinib] (partner 2 µM) | relative viability | 0.537 |
| Cc1csc(=NC2CCCCC2)n1/N=C/c1ccc(O)c(O)c1O [MIM1] + NC(=O)Nc1cc(-c2cccc(F)c2)sc1C(=O)N[C@H]1CCCNC1 [AZD7762] (partner 0.2 µM) | relative viability | 0.775 |
| Cc1csc(=NC2CCCCC2)n1/N=C/c1ccc(O)c(O)c1O [MIM1] + O=C(CCCCCCC(=O)Nc1ccccc1)NO [Vorinostat] (partner 1 µM) | relative viability | 0.563 |

# next compound below
INPUT: # query: relative viability of entry Cc1csc(=NC2CCCCC2)n1/N=C/c1ccc(O)c(O)c1O [MIM1] + CS(=O)(=O)N1CCN(Cc2cc3nc(-c4cccc5[nH]ncc45)nc(N4CCOCC4)c3s2)CC1 [Pictilisib] (partner 1 µM)
OUTPUT: 0.631

---

- Test system: NCI-H322M
- protocol-text: relative viability (nuclei count vs DMSO), 5 days (fraction); higher = more cells survive
- details: first compound 0.06325 µM
Measured relative viability values are reported for all entries that follow.
Provide a numeric answer; units are not to be included.

| compound | experimental-endpoint | measured-value |
| --- | --- | --- |
| CCNC(=O)c1noc(-c2cc(C(C)C)c(O)cc2O)c1-c1ccc(CN2CCOCC2)cc1 [Luminespib] + Nc1nc2[nH]cc(CCc3ccc(C(=O)N[C@@H](CCC(=O)O)C(=O)O)cc3)c2c(=O)[nH]1 [Pemetrexed] (partner 0.2 µM) | relative viability | 0.409 |

INPUT: # query: relative viability of entry CCNC(=O)c1noc(-c2cc(C(C)C)c(O)cc2O)c1-c1ccc(CN2CCOCC2)cc1 [Luminespib] + COc1cc2c(Oc3ccc(NC(=O)C4(C(=O)Nc5ccc(F)cc5)CC4)cc3F)ccnc2cc1OCCCN1CCOCC1 [Foretinib] (partner 0.25 µM)
OUTPUT: 0.323

---

- System: EBC-1
- protocol-text: relative viability (nuclei count vs DMSO), 5 days (fraction); higher = more cells survive
- details: first compound 0.253 µM
experimental-endpoint: relative viability
Provide a numeric answer; units are not to be included.

Examples with answers:
| molecule | study-system | measured-value |
| --- | --- | --- |
| Nc1cccc2c1CN(C1CCC(=O)NC1=O)C2=O (centres undefined) [Lenalidomide] + C[C@]1(O)C[C@@H](c2nc(-c3ccc4ccc(-c5ccccc5)nc4c3)c3c(N)nccn32)C1 [Linsitinib] (partner 1 µM) | EBC-1 | 0.826 |
| Nc1cccc2c1CN(C1CCC(=O)NC1=O)C2=O (centres undefined) [Lenalidomide] + Cc1nc(NC(=O)N2CCC[C@H]2C(N)=O)sc1-c1ccnc(C(C)(C)C(F)(F)F)c1 [Alpelisib] (partner 2 µM) | EBC-1 | 0.787 |
| Nc1cccc2c1CN(C1CCC(=O)NC1=O)C2=O (centres undefined) [Lenalidomide] + CS(=O)(=O)N1CCN(Cc2cc3nc(-c4cccc5[nH]ncc45)nc(N4CCOCC4)c3s2)CC1 [Pictilisib] (partner 1 µM) | EBC-1 | 0.398 |

# next molecule below
INPUT: # query: relative viability of entry Nc1cccc2c1CN(C1CCC(=O)NC1=O)C2=O (centres undefined) [Lenalidomide] + CC(C)C[C@H](NC(=O)[C@H](Cc1ccccc1)NC(=O)c1cnccn1)B(O)O [Bortezomib] (partner 0.002 µM)
OUTPUT: 0.653
